The compounds listed here are annotated with their RP-LC retention time.
assay: gradient 5% acetonitrile 3 min, to 50% in 2 min, to 85% in 15 min, held 3 min, 100 µL/min; settings: column: Zorbax Extend-C18 2.1 x 50 mm; eluents: water / acetonitrile, 0.1% formic acid
readout-kind: RP-LC retention time (s)

1. O=C(c1ccc(F)cc1)N1CCC2(CC1)OCC(C(=O)N1CCOCC1)N2C(=O)c1cccc(F)c1 (centres undefined) :: 679
2. Cc1nc(-c2ccc(Cl)cc2)sc1C(=O)N1CCN(c2ncccn2)CC1 :: 961
3. CC1=C(c2ccc(F)cc2)S(=O)(=O)N=C1N1CCCN(C(=O)C(C)C)CC1 :: 751
4. CCC(C)NC(=O)C1CCN(C(=O)Nc2ccc(NC(=O)Nc3ccccc3)cc2)CC1 (centres undefined) :: 748
5. Cc1ccc(-n2nc(C)c3sc(N4CCCC(C(=O)NC5CCCc6ccccc65)C4)nc32)cc1 (centres undefined) :: 1300
6. Cc1sc(-c2cc(C(F)(F)F)on2)cc1S(=O)(=O)N1CCN(c2cccc(Cl)c2)CC1 :: 1440
7. Cc1cnc(CCC2CCCN2C(=O)c2ccc(Cn3cncn3)o2)n1C(C)C (centres undefined) :: 626
8. O=C(NCc1ccco1)c1ccc2c(c1)N(C(=O)c1ccc(F)cc1)CC2 :: 823
9. COc1ccc2nc(C(=O)NCc3ccc(Cl)cc3)cn2n1 :: 830
